The measurements presented in this section are drawn from patent US12084403B2.

assay: Plasma stability test using pyrene probes, BALB/c mouse plasma; assay type: in vitro ADME; conditions: undiluted BALB/c mouse plasma, 37° C., HPLC
Hi! Could you tag entries with t1/2 below 5 h as Met, and those at or above as Not met? Much appreciated.

Exercise: t1/2 under 5 h? Item: Ac-Asp-Val-Cit-PABC-Sar-pyrene [probe 12d]
Solution: Not met

Exercise: t1/2 under 5 h? Item: Ac-Glu-Val-Cit-PABC-Sar-pyrene [probe 12c]
Solution: Not met

Exercise: t1/2 under 5 h? Item: Ac-Ser-Val-Cit-PABC-Sar-pyrene [probe 12b]
Solution: Met

Exercise: t1/2 under 5 h? Item: Ac-Lys-Val-Cit-PABC-Sar-pyrene [probe 12e]
Solution: Met
